target-or-system: P2X7 receptor (IL-1β release from THP-1 cells) (Homo sapiens, UniProt Q99572)
Sequence (Q99572 1-595): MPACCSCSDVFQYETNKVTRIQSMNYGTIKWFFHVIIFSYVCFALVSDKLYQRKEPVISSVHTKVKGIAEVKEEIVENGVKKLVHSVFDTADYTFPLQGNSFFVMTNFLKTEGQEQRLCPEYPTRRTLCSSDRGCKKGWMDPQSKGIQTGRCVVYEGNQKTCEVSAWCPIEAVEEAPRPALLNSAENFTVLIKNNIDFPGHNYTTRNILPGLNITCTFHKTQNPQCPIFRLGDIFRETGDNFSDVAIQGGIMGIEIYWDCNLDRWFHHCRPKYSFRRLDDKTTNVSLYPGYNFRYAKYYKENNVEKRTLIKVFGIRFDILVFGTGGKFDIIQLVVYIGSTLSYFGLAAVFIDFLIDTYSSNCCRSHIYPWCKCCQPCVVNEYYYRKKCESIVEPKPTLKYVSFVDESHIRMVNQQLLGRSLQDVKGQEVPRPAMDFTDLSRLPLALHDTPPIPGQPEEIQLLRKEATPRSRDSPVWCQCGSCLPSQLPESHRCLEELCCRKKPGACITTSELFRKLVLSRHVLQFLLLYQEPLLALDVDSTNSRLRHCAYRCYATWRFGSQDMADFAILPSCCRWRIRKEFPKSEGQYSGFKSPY
experiment-summary: IL-1β release assay in differentiated THP-1 cells stimulated with BzATP (Example 9)
details: released IL-1β as in Example 9, four parameter logistic fit
measurement-kind: IC50 (nM)

The following molecules have reported results that may help.
molecule=C[C@H](C(N)=O)n1ccc2c(NC(=O)CC34CC5CC(CC(C5)C3)C4)c(Cl)ccc2c1=O target_or_system="P2X7 receptor (IL-1β release from THP-1 cells) (Homo sapiens, UniProt Q99572)" quantity_unit=nM observed=0.088
molecule=O=C(CC1CCCCCC1)Nc1cccc2c(=O)n(C(CO)CO)ccc12 target_or_system="P2X7 receptor (IL-1β release from THP-1 cells) (Homo sapiens, UniProt Q99572)" quantity_unit=nM observed=75.6
molecule=C[C@H](C(N)=O)n1ccc2c(NC(=O)CC3(O)CCCCCC3)cccc2c1=O target_or_system="P2X7 receptor (IL-1β release from THP-1 cells) (Homo sapiens, UniProt Q99572)" quantity_unit=nM observed=41.3

A. C[C@H](C(N)=O)n1ccc2c(NC(=O)CC34CC5CC(CC(O)(C5)C3)C4)cccc2c1=O
B. O=C(CC12CC3CC(CC(C3)C1)C2)Nc1cccc2c1CCN(CCO)C2=O
C. NC(=O)C(CO)n1ccc2c(NC(=O)CC3CCCCCC3)cccc2c1=O (centres unmarked)
D. CC(C)C[C@H](CO)n1ccc2c(NC(=O)CC3CCCCCC3)cccc2c1=O
Asked: Sort these molecules on IC50 so the largest reading comes first. Please respond by ranking the labels in the order requested.
Given back: A, C, D, B
(A: 48.2 nM, C: 32.7 nM, D: 8.3 nM, B: 1.37 nM)

###

target-or-system: P2X7 receptor (IL-1β release from THP-1 cells) (Homo sapiens)
experiment-summary: IL-1β release assay in differentiated THP-1 cells stimulated with BzATP (Example 9)
details: released IL-1β as in Example 9, four parameter logistic fit
measurement-kind: IC50 (nM)

The following compounds have reported results that may help.
compound=C[C@H](C(N)=O)n1ccc2c(NC(=O)CC3CC(C)(C)CC(C)(C)C3)cccc2c1=O measurement_kind=IC50 quantity_unit=nM observed=0.929
compound=C[C@H](C(=O)O)n1ccc2c(NC(=O)CC3CCCCCC3)cccc2c1=O measurement_kind=IC50 quantity_unit=nM observed=92.1
compound=NC(=O)Cn1ccc2c(NC(=O)CC3(O)CCCCCC3)cccc2c1=O measurement_kind=IC50 quantity_unit=nM observed=427
compound="O=C(CC12CC3CC(CC(C3)C1)C2)Nc1cccc2c(=O)n(CC3CCCN3)ccc12 (centres unmarked)" measurement_kind=IC50 quantity_unit=nM observed=1.56
compound=C[C@H](CO)N1CCc2c(NC(=O)CC34CC5CC(C)(CC(C)(C5)C3)C4)cccc2C1=O measurement_kind=IC50 quantity_unit=nM observed=11.5

A. C[C@H](CO)n1ccc2c(NC(=O)CC34CC5CC(CC(C5)C3)C4)cccc2c1=O
B. CC12CC3CC(C)(C1)CC(CC(=O)Nc1cccc4c(=O)n(CC5CCNCC5)ccc14)(C3)C2
Asked: Which of these two has the smaller recorded IC50: A or B ? Label of pick, please.
Given back: A
